All figures here come from patent US7473541B2.

- subject of test: iPLA2eta (Homo sapiens)
- Sequence (P41247 1-253): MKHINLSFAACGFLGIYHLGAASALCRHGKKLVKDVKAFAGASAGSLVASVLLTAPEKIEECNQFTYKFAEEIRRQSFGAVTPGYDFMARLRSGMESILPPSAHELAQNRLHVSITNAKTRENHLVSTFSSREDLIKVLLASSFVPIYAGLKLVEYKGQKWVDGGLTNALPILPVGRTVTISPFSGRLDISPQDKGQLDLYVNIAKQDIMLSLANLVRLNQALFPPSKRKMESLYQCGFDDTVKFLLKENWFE
test readout: IC50

compound: O=C1O/C(=C/Br)CCC1c1cccc2ccccc12 (stereo not shown) [BEL]
value observed: ~100 nM

====

- subject of test: iPLA2epsilon, iPLA2zeta, and iPLA2eta
- procedure details: Triglyceride lipase activity inhibition, summary over the three isoforms
- reported conditions: range over iPLA2epsilon, zeta, eta; read-out: IC50, triglyceride lipase activity of each of the three isoforms
pIC50: −log10 of the molar value.

molecule: O=C1O/C(=C/Br)CCC1c1cccc2ccccc12 (stereo not shown) [BEL]
pIC50: 6.30 to 7.00

====

- subject of test: iPLA2epsilon (Homo sapiens, UniProt Q9NST1, K434E)
- Construct: used as a template for PCR to obtain full-length CDNA for iPLA2epsilon
- Sequence (Q9NST1 with tags, fused parts or gaps K434E): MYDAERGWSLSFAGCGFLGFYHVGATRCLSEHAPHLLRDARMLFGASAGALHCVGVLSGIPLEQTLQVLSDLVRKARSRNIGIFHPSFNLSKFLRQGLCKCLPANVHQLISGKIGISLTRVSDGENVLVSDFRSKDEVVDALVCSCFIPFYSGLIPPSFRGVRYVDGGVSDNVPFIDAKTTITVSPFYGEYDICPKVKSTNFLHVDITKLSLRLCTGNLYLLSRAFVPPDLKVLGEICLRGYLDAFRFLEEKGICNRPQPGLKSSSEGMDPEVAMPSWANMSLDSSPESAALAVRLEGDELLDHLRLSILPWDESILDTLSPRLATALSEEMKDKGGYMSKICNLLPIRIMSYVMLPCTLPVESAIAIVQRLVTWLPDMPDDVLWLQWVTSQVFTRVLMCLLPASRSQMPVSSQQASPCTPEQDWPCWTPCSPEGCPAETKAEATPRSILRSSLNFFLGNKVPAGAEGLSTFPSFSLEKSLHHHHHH
- procedure details: Triolein lipase activity inhibition by BEL
- reported conditions: pre-incubated with 0.1-2 microM BEL prior to substrate
test readout: IC50

compound: O=C1O/C(=C/Br)CCC1c1cccc2ccccc12 (stereo not shown) [BEL]
test readout: IC50
value observed: ~100 nM
